# Test system: Mycobacterium tuberculosis
# experiment notes: Antimycobacterial activity against Mycobacterium tuberculosis H37Rv by microplate alamar blue assay
# Format: functional
For each of the compounds below, state its log10(MIC).
Heads up: the numbers are on a log10 scale; they represent MIC in mg/L.

• COc1ccc2[nH]c3cc(O)c(C=O)cc3c2c1 = 1.16
• CCCCCCCCC[C@@H]1C[C@@H]2CC[C@H]3[C@@H](C(=O)O[C@H](C)CCCCCCC[C@@H]4C[C@@H]5CC[C@@H]6C[C@H](C)NC(=N4)N65)[C@@H](C)N=C(N1)N23 = 0.50
• COc1ccc2[nH]c3ccc(C=O)cc3c2c1 = 1.19
• CC(C)=CCc1c(O)ccc2[nH]c3ccc(C=O)cc3c12 [MICROMELINE] = 1.50
• C=C[C@H]1C=C[C@H]2[C@@H]3C[C@H](C)CC[C@H]3[C@@H]3Oc4ccc(cc4)C[C@]4(O)NC(=O)[C@H](C(=O)[C@@H]1[C@H]23)C4N1C(=O)[C@H]2C(=O)[C@H]3[C@@H](C=C)C=C[C@H]4[C@@H]5C[C@H](C)CC[C@H]5[C@H](Oc5ccc(cc5)C[C@@H]2C1=O)[C@@H]43 (some centres not stated) [HIRSUTELLONE F] = 0.49

For every listed record, write down its log10(MIC).
1. O=Cc1ccc2[nH]c3ccccc3c2c1
2. CC[C@H]1C=CCC[C@@]2(C[C@@H]3CC[C@@H]4[C@H](C(=O)OCCCCCCCCCCCCCCCC(=O)N(CCCN)CC(O)CCN)[C@]5(CCC[C@@H](C)O5)N=C(N2)N34)O1 (some centres not stated)

Ans.
1: 1.63; 2: 1.67
